System: Apo B secretion
test-name: Test 1: Measurement of Inhibition of Apo B Secretion (HepG2 cells, ELISA of medium)
Assay type: cell-based
experimental-setup: Homo sapiens, 10^−8 M test compound, 15-hour incubation, 0.1% DMSO treated cells as controls
Reported inhibition at 0.01 µM values for the following compounds.
parameter: inhibition at 0.01 µM (%)

{"compound": "Cc1ccc(-c2ccc(C)cc2C(=O)Nc2ccc(NCCc3cccc(N)n3)cc2)cc1", "endpoint-unit": "%", "reported-result": 84}
{"compound": "O=C(Nc1ccc(NCCc2ccccn2)cc1)C1=C(c2ccc(C(F)(F)F)cc2)CCCCC1", "endpoint-unit": "%", "reported-result": 93}
{"compound": "N#Cc1cccc(CN2CCN(c3ccc(NC(=O)C4=C(c5ccc(C(F)(F)F)cc5)CCCC4)cn3)CC2)c1", "endpoint-unit": "%", "reported-result": 84}
{"compound": "Cc1ccc(-c2ccc(Cl)cc2)c(C(=O)Nc2ccc(NCCc3cccc(N)n3)cc2)c1", "endpoint-unit": "%", "reported-result": 86}
{"compound": "Cc1ccc(C(=O)Nc2ccc(NCCc3ccccn3)cc2)c(-c2ccc(C(F)(F)F)cc2)c1", "endpoint-unit": "%", "reported-result": 83}
{"compound": "Cc1ccc(-c2ccc(F)cc2)c(C(=O)Nc2ccc(NCCc3cccc(N)n3)cc2)c1", "endpoint-unit": "%", "reported-result": 93}
{"compound": "Cc1ccc(-c2ccc(Cl)cc2)c(C(=O)Nc2ccc(NCCc3ccccn3)cc2)c1", "endpoint-unit": "%", "reported-result": 96}
{"compound": "Cc1ccc(C(=O)Nc2ccc(NCCc3ccccn3)cc2)c(-c2ccc(F)cc2)c1", "endpoint-unit": "%", "reported-result": 94}
